system: UO-31 renal; experiment: NCI-60 one-dose screen, 48 h (100 = growth as untreated, 0 = no growth, -100 = all killed); conditions: 10 µM
This is part of a sample that, as a whole, favours compounds with a hit. Of some 83,000 tested, about 20% had one in any assay.
Parameter: growth (%)
The figure you give is taken to be in %; do not add the unit.

Solved cases (2 shown):
{"Smiles": "COc1ccc2c(c1)[nH]c1c(/C=C/c3ccccc3)nccc12", "Unit": "%", "growth": 25.7}
{"Smiles": "COc1ccc2oc(-c3ccc(Cl)cc3)c(N3CCN(C)CC3)c2c1", "Unit": "%", "growth": -5.46}

Quick check: growth on UO-31 renal, item Cc1cc(N=C2C=CC(=[N+](C)C)C=C2)c(N)cc1N ? 71.5

Identify the measured growth of CN(C)CCNc1cccc2sc3ccc(O)cc3c(=O)c12 for UO-31 renal. 20

Requested read-out growth, target or system UO-31 renal, entry S=C1SCN(CCc2ccccc2)CN1CCc1ccccc1 70.6

Enter reported growth observed with UO-31 renal for Nc1nc(N)c2cc(Sc3ccc4ccccc4c3)ccc2n1 22

###

tested on: MDA-MB-231 breast; assay: NCI-60 one-dose screen, 48 h; details: 10 µM
About 83,000 compounds went through this panel and 20% of them were active in at least one assay; those are over-represented in the sample as a whole. The source made the active and inactive calls. The calls were made as follows: active = growth percent below 10; inactive = the rest.
Lab note: assign the record to one of active, inactive

# outcome recorded in this test, key = O=C1c2ccccc2CCC1(Br)Br active

Any idea what this test logged for COc1ccc(C(C#N)=C2C=CC(=NO)C=C2)cc1 ? inactive

For ClCCn1c(CCl)nc2ccc(Cl)cc21 , which call appears in the assay record? active

Dear colleague, could you share the recorded outcome for COc1cc(N)ccc1Nc1c2ccccc2nc2ccccc12 when you have a moment? inactive

// param item: CC1CCC2(C(=O)O)CCC3(C)C(=CCC4C5(C)CC(O)C(O)C(C)(CO)C5C(O)CC43C)C2C1C (configuration not stated) ; yields the recorded call inactive

Any idea what this test logged for COc1ccc2c(c1)[nH]c1c(/C=C/c3ccccc3)nccc12 ? inactive

Name the outcome recorded for Cc1cc(Cl)ccc1NC(=O)/C(Cl)=C1/Sc2ccccc2NC1=O in the assay. inactive

# lookup: test call for Nc1nc(N)c2cc(Sc3ccc4ccccc4c3)ccc2n1 inactive

Which result was noted for this compound in the test: C=C1N(C)c2ccc(Cl)cc2C1(C)C inactive

Hi, sorry to bother you, what did the test record for O=C(NC(=S)Nc1ccccn1)c1ccccc1 ? inactive

Answer briefly: the call reported for Cc1c(-c2ccccc2)[nH]c2ccccc12 in this assay. inactive

Tell me the recorded outcome of this test for O=[N+]([O-])c1cc(S(=O)(=O)Nc2ccccc2)ccc1Cl . inactive

###

tested on: RPMI-8226 leukemia; assay: NCI-60 one-dose screen, 48 h (100 = growth as untreated, 0 = no growth, -100 = all killed); conditions: 10 µM
About 83,000 compounds went through this panel and 20% of them were active in at least one assay; those are over-represented in the sample as a whole.
The reader will find reported growth values listed item by item below.
Could you give me the number in %? Just the number is fine.

{"Compound": "Cn1ncc2cc3c(Nc4ccc(Cl)cc4)cccc3nc21", "growth [%]": 79}
{"Compound": "O=C1C(Cl)=C(Cl)C(Cl)(Cl)C(Cl)C1(Cl)Cl (configuration not stated)", "growth [%]": 98.1}
{"Compound": "Cc1cc(C)c(N2C(=O)CC(Sc3ccccc3N)C2=O)c(C)c1 (configuration not stated)", "growth [%]": 66.3}

Return reported growth; argument: NCc1c(O)ccc2ccccc12 101

Give the measured growth of O=S(=O)(c1cc(Cl)ccc1O)c1cc(Cl)ccc1O . 51.2

Query (compound): CCC(=O)Oc1ccc(/C=N/NC(N)=S)nc1 ; field requested: growth 50.3

Value lookup for growth; key = ClCCn1c(CCl)nc2ccc(Cl)cc21 -22.2
